- assaySystem: full-length MALT1 protein (Strep-MALT1(1-824)-His) (Homo sapiens (Human))
- Sequence (Q9UDY8 whole entry): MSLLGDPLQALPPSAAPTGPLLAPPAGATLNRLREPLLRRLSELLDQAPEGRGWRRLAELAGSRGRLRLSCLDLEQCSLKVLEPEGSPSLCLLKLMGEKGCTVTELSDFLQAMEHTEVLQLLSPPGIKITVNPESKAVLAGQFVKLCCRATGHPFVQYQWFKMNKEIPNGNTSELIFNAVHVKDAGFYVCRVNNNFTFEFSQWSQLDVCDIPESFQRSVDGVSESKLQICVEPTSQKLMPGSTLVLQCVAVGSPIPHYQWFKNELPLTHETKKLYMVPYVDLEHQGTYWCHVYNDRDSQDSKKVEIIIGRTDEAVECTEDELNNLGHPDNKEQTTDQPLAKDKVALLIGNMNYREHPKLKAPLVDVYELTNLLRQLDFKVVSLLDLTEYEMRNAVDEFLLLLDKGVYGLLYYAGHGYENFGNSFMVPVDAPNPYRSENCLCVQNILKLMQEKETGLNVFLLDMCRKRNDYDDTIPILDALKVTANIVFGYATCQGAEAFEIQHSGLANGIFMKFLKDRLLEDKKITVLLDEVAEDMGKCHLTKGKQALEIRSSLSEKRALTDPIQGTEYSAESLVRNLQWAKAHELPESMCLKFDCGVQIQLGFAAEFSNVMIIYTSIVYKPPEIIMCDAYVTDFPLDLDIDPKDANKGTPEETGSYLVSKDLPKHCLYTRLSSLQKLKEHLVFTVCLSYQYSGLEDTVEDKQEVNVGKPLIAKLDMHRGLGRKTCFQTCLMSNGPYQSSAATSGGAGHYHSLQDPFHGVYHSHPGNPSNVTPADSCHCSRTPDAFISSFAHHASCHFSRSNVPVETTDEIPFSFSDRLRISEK
quantity: log10 of IC50 (log10 of the value in nM)
Annotation: log10 of IC50, nM basis.

Below: 5 compounds and their reported log10 of IC50.
{"chemicalStructure": "O=C(Nc1cnc(-c2ncco2)c(Cl)c1)c1cnn(-c2cccc3ccncc23)c1C(F)(F)F", "log10 of IC50": 2.82}
{"chemicalStructure": "COC(=O)c1cn(-c2ncc(NC(=O)c3cnn(-c4cccc5ncccc45)c3C(F)(F)F)cc2Cl)nn1", "log10 of IC50": 2.52}
{"chemicalStructure": "Cn1ncc2ccnc(-n3ncc(C(=O)Nc4cnc(-n5nccn5)c(C#N)c4)c3C(F)(F)F)c21", "log10 of IC50": 2.34}
{"chemicalStructure": "N#Cc1cc(NC(=O)c2cnn(-c3cccc4ncccc34)c2C(F)(F)F)cnc1-n1cncn1", "log10 of IC50": 1.85}
{"chemicalStructure": "O=C(Nc1cnc(N2CCCS2(=O)=O)c(Cl)c1)c1cnn(-c2cncc3ccccc23)c1C(F)(F)F", "log10 of IC50": 2.21}

For each entry beneath this line, provide reported log10 of IC50.
1. COC(=O)c1cnn(-c2ccc(NC(=O)c3cnn(-c4cccc5ncccc45)c3C(F)(F)F)cc2Cl)n1
2. O=C(Nc1ccncc1)c1cnn(-c2cccc3c(=O)[nH]ccc23)c1C(F)(F)F
3. Cc1nc(-n2nccn2)c(C#N)cc1NC(=O)c1cnn(-c2cncc3c(F)cccc23)c1C(F)(F)F

[2.38, 4.13, 1.30]

---

Could you please report measured pIC50 for the items listed next?
- Test system: IL6 secretion by OCI-LY3 ABC-DLBCL cells
- measurementDescription: Human IL6 Mesoscale assay (OCI-LY3)
- Type: cell-based
- assayConditions: Homo sapiens, 24 h
Give bare numbers, as −log10 of the molar value.

Below: 3 compounds and their reported pIC50.
{"compound": "CN(C)Cc1cnn(-c2ncc(NC(=O)c3cnn(-c4cccc5ncccc45)c3C(F)(F)F)cc2Cl)n1", "pIC50": 7.59}
{"compound": "Cc1cc(-n2nccn2)c(C#N)cc1NC(=O)c1cnn(-c2cccc3scnc23)c1C(F)(F)F", "pIC50": 7.30}
{"compound": "O=C(Nc1cnc(-n2nccn2)c(Cl)c1)c1cnn(-c2ccc3nccn3n2)c1C(F)(F)F", "pIC50": 7.19}

Alright, here's another compound for you.
Which measured pIC50 value corresponds to CC(O)c1cc(-n2ncc(C(=O)Nc3cnc(-n4nccn4)c(Cl)c3)c2C(F)(F)F)c2ccccc2n1 (stereo not shown) ?
7.14

---

Could you please report measured pIC50 for the items listed next?
- System: IL6 secretion by OCI-LY3 ABC-DLBCL cells
- measurementDescription: Human IL6 Mesoscale assay (OCI-LY3)
- Format: cell-based
- assayConditions: Homo sapiens, 24 h
Answers are plain numbers, as −log10 of the molar value.

Below: 10 molecules and their reported pIC50.
{"molecule": "COc1ncc(-n2ncc(C(=O)Nc3cnc(-n4nccn4)c(Cl)c3)c2C(F)(F)F)c2ccccc12 [Cpd 421]", "quantity": "pIC50", "reading": 6.34}
{"molecule": "O=C(Nc1cnc(-c2nn[nH]n2)c(Cl)c1)c1cnn(-c2cccc3ncccc23)c1C(F)(F)F [Cpd 307]", "quantity": "pIC50", "reading": 6.35}
{"molecule": "Cc1nc2ccccn2c1-n1ncc(C(=O)Nc2cnc(-n3nccn3)c(C#N)c2)c1C(F)(F)F [Cpd 295]", "quantity": "pIC50", "reading": 5.90}
{"molecule": "O=C(Nc1cnc(-n2nccn2)c(Cl)c1)c1cnn(-c2cnc(N3CC[C@H](O)C3)c3sccc23)c1C(F)(F)F [Cpd 431]", "quantity": "pIC50", "reading": 6.93}
{"molecule": "O=C(Nc1cnc(-n2ncc(CO)n2)c(Cl)c1)c1cnn(-c2cccc3c(=O)[nH]ccc23)c1C(F)(F)F [Cpd 115]", "quantity": "pIC50", "reading": 7.89}
{"molecule": "Cc1nc(-c2ccn(C)n2)c(Cl)cc1NC(=O)c1cnn(-c2cnc(N)c3ccccc23)c1C(F)(F)F [Cpd 333]", "quantity": "pIC50", "reading": 6.81}
{"molecule": "O=C(Nc1cnc(-n2nccn2)c(Cl)c1)c1cnn(-c2cnc(N3CC[C@@H](O)C3)c3ccccc23)c1C(F)(F)F [Cpd 427]", "quantity": "pIC50", "reading": 6.69}
{"molecule": "Cc1cnn(-c2nc(C)c(NC(=O)c3cnn(-c4cccc5c(=O)[nH]ccc45)c3C(F)(F)F)cc2Cl)n1 [Cpd 359]", "quantity": "pIC50", "reading": 7.01}
{"molecule": "N#Cc1cc(NC(=O)c2cnn(-c3cnc(N)c4c(F)cccc34)c2C(F)(F)F)cnc1-n1nccn1 [Cpd 111]", "quantity": "pIC50", "reading": 6.97}
{"molecule": "Nc1ncc(-n2ncc(C(=O)Nc3cnc(-n4nccn4)c(Cl)c3)c2C(F)(F)F)c2ccccc12 [Cpd 155]", "quantity": "pIC50", "reading": 7.03}

For each entry beneath this line, provide reported pIC50.
1. C#Cc1cc(NC(=O)c2cnn(-c3cccc4c(=O)[nH]ccc34)c2C(F)(F)F)c(C)nc1-n1nccn1 [Cpd 190]
2. N#Cc1cc(NC(=O)c2cnn(-c3ccc(N)c4ncccc34)c2C(F)(F)F)cnc1-n1nccn1 [Cpd 326]
3. O=C(Nc1cnc(-n2nccn2)c(Cl)c1)c1cnn(-c2cccn3nccc23)c1C(F)(F)F [Cpd 197]
4. O=C(Nc1cnc(-n2nccn2)c(Cl)c1)c1cnn(-c2cccc3[nH]c(=O)ccc23)c1C(F)(F)F [Cpd 344]
5. Cc1ncc(-n2ncc(C(=O)Nc3cnc(-n4nccn4)c(Cl)c3)c2C(F)(F)F)c2ccsc12 [Cpd 434]

1: 6.73; 2: 6.98; 3: 6.91; 4: 7.28; 5: 6.54

Values were extracted from patent US10954214B2.
